Assay: NCI Yeast Anticancer Drug Screen. Data for the rad50 strain (AID 155);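 note: 0% = growth of vehicle-only cultures of the same strain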
Conditions: S. cerevisiae rad50 strain growth inhibition; at 50.0 µM; hits give high values
Compounds without any hit were thinned out: in the full panel of roughly 79,000, 15% have a hit.
measurement-label: growth inhibition (%)
Please state the figure in %; there is no need to write the unit.

Sample records with growth inhibition:
compound | value-unit | growth inhibition
NCC(=O)NC1CCCCC1 | % | 30.6
COc1ccc(NC(=O)Oc2ccccc2C(N)=O)c(Cl)c1 | % | -2.05
C/C(=N/NC(N)=O)C1C2CC3C(C2Cl)C31 (centres undefined) | % | 21.4
CCCCCCCCCCCCCCCCCCCCCCCCC(O)C(=O)O (centres undefined) (tested in a mixture with another compound) | % | -33
NCCc1c(-c2cccnc2)[nH]c2ccccc12 | % | -14.5
CC1CNC(=S)N(c2cccc3ccccc23)C1=O (centres undefined) | % | -4.8
Cc1c(CCOC=O)c(=O)[nH]c2nncn12 | % | -15.5
NCC1CCCCO1 (centres undefined) | % | 7

[Q] State its growth inhibition for this compound: `COCC(=O)c1ccccc1-c1ccccc1`
[A] 13.6

[Q] State its growth inhibition for this compound: `CNN=C(C)C`
[A] -2.15

[Q] State its growth inhibition for this compound: O=C(Nc1nc(=S)[nH][nH]1)C(=O)C1C(=O)Nc2ccccc2S1=O (centres undefined)
[A] 3.45

[Q] State its growth inhibition for this compound: `CN=C/C(C(C)=O)=C(\C)O`
[A] 4.1

----------
Some molecules, each annotated with its measured growth inhibition.
Experiment: NCI Yeast Anticancer Drug Screen. Data for the mlh1 rad18 strain (AID 175)
Details: S. cerevisiae mlh1 rad18 strain growth inhibition; at 50.0 µM; hits give high values
This is part of a sample that, as a whole, favours compounds with a hit. Of some 79,000 tested, about 15% had one in any assay.
Please state the figure in %; there is no need to write the unit.

molecule | measurement-label | measurement
Clc1ccc(-c2nnc(-c3ccncc3)o2)c(Cl)c1 | growth inhibition | 15.6
O/N=C(\CC(O)(C(F)(F)F)C(F)(F)F)c1cccs1 | growth inhibition | 93.5
O=c1[nH]c(/C=C(\O)c2ccncc2)nc2ccccc12 | growth inhibition | -17.9
COC1=CC(=O)C=C(C)C1=O | growth inhibition | 2
CSc1nc2c(c(O)c(C)c(=O)n2C2OCC(OC(C)=O)C(OC(C)=O)C2OC(C)=O)c(=O)n1C (stereo unspecified) | growth inhibition | -1.3

// moving on: another record for growth inhibition
[Q] State its growth inhibition for this molecule: `C[n+]1nnn(/N=C\c2ccccc2)c1N`
[A] 11.6

----------
Experiment: NCI Yeast Anticancer Drug Screen. Data for the sgs1 mgt1 strain (AID 161);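 note: 0% = growth of cultures given vehicle only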
Settings: S. cerevisiae sgs1 mgt1 strain, at 50.0 µM
This is part of a sample that, as a whole, favours compounds with a hit. Of some 79,000 tested, about 15% had one in any assay. Activity calls are given as the source filed them. Cut-off read from the data, not from the text of the source: active = growth inhibition above about 70%; inactive = the rest.
Pick from active, inactive when you respond.

compound | class-assignment
O=C(O)CCc1ccc2c(c1)C(=O)CC2 | inactive
CC(C)=CC(Cc1ccccc1)S(=O)(=O)c1nc2ccccc2s1 (centres undefined) | inactive
COC(=O)[C@]1(C)CCCn2c(=O)n(-c3ccccc3)c(=O)n21 | inactive
CN(C=O)c1ccccc1 | inactive
COC(=O)CCC(=O)CN1C(=O)c2ccccc2C1=O | inactive
CSc1nc(=S)c2[nH]c(=S)[nH]c2[nH]1 | inactive
CC(C)SC1SCC2C(=O)N(C)C3(CC3C)C(=O)OCC(NC(=O)c3nc4ccccc4cc3O)C(=O)NC(C)C(=O)N(C)C1C(=O)N(C)C1(CC1C)C(=O)OCC(NC(=O)c1nc3ccccc3cc1O)C(=O)NC(C)C(=O)N2C (centres undefined) | active
C=CCOC(=O)CC | inactive
COc1ccccc1/C=N/Nc1ccc([N+](=O)[O-])cc1[N+](=O)[O-] | inactive
CC1=NOC(C)(O)/C1=N/O (centres undefined) | inactive

[Q] Name the outcome recorded for `COc1cc(C(=O)CCC(=O)O)c(OC)c(CBr)c1CBr` in the assay.
[A] inactive

[Q] Name the outcome recorded for COC(=O)C(/C(=N\NC(N)=S)C(=O)Nc1ccccc1[N+](=O)[O-])c1cnc2ccccc2n1 (centres undefined) in the assay.
[A] inactive

[Q] Name the outcome recorded for `C=C(CBr)CCCOCc1ccccc1` in the assay.
[A] inactive

[Q] Name the outcome recorded for `C=CCOC(=O)CCCCC` in the assay.
[A] inactive

[Q] Name the outcome recorded for `CCCCCCCCCCCCCCCCCCNC(=O)N(C)Cc1ccccc1` in the assay.
[A] inactive

[Q] Name the outcome recorded for `CC(C)(C)CC(=O)Nc1ccccc1` in the assay.
[A] inactive
